System Name: T1, vWF A1 domain (UniProt P04275 1261-1468, limits assumed)
T1 construct: domain: A1; also called vWF A1 fragment
Procedure Text: binding constant; method not stated in Example 3
Value Kind: Ka (M⁻¹)

Binder	Quantitative Result
GPIb-290/2V-Ig (N-terminal 290 amino acids of GPIbα with G233V M239V fused to a human IgG1 Fc domain) (Fc fusion, sulfated tyrosines at 276, 278, 279 (extent not stated), also called GPIb2V-Ig; GP Ib-Ig2V; not shown: human IgG1 Fc domain) HPICEVSKVASHLEVNCDKRNLTALPPDLPKDTTILHLSENLLYTFSLATLMPYTRLTQLNLDRCELTKLQVDGTLPVLGTLDLSHNQLQSLPLLGQTLPALTVLDVSFNRLTSLPLGALRGLGELQELYLKGNELKTLPPGLLTPTPKLEKLSLANNNLTELPAGLLNGLENLDTLLLQENSLYTIPKGFFGSHLLPFAFLHGNPWLCNCEILYFRRWLQDNAENVYVWKQVVDVKAVTSNVASVQCDNSDKFPVYKYPGKGCPTLGDEGDTDLYDYYPEEDTEGDKVR	1.9e+08

The values you see were collected from patent US20110039780A1.
